All values here come from the supplement of paper PMC10126150.

test system: ATP; test: switch fluorescence ratio, 500 uM ATP over buffer (Cy3 cluster intensity, sum of 5 cycles each) (fold (ratio)); higher = stronger signal-on switching upon ATP binding; sequences stand for … in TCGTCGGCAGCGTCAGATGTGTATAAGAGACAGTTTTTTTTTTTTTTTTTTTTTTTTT…TC; settings: aptamer strand: ATP DNA aptamer (quencher-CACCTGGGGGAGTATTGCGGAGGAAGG + anchor), 100 nM annealed; ATP concentration: 500 uM;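 note: ATP exposure 15 min at 22 °C before imaging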
In this section we review reported switch fluorescence ratio values for a set of sequences.
VALUE KIND: switch fluorescence ratio

[
  {
    "SEQ": "TTTTCTGCCG",
    "EXPERIMENTAL SYSTEM": "ATP",
    "VALUE KIND": "switch fluorescence ratio",
    "VALUE REPORTED": 1.03
  },
  {
    "SEQ": "TCCTGCATGG",
    "EXPERIMENTAL SYSTEM": "ATP",
    "VALUE KIND": "switch fluorescence ratio",
    "VALUE REPORTED": 1.22
  },
  {
    "SEQ": "TTAGGTTGCA",
    "EXPERIMENTAL SYSTEM": "ATP",
    "VALUE KIND": "switch fluorescence ratio",
    "VALUE REPORTED": 0.981
  },
  {
    "SEQ": "GGTTTCGATG",
    "EXPERIMENTAL SYSTEM": "ATP",
    "VALUE KIND": "switch fluorescence ratio",
    "VALUE REPORTED": 1
  },
  {
    "SEQ": "TTTAACGCAT",
    "EXPERIMENTAL SYSTEM": "ATP",
    "VALUE KIND": "switch fluorescence ratio",
    "VALUE REPORTED": 1.24
  },
  {
    "SEQ": "AAACTATGTG",
    "EXPERIMENTAL SYSTEM": "ATP",
    "VALUE KIND": "switch fluorescence ratio",
    "VALUE REPORTED": 1.02
  },
  {
    "SEQ": "CGGACCGGGA",
    "EXPERIMENTAL SYSTEM": "ATP",
    "VALUE KIND": "switch fluorescence ratio",
    "VALUE REPORTED": 1.06
  },
  {
    "SEQ": "GGGTTAAAGG",
    "EXPERIMENTAL SYSTEM": "ATP",
    "VALUE KIND": "switch fluorescence ratio",
    "VALUE REPORTED": 1
  },
  {
    "SEQ": "ATGGTCTTTT",
    "EXPERIMENTAL SYSTEM": "ATP",
    "VALUE KIND": "switch fluorescence ratio",
    "VALUE REPORTED": 1.01
  },
  {
    "SEQ": "AAGGTGGCCC",
    "EXPERIMENTAL SYSTEM": "ATP",
    "VALUE KIND": "switch fluorescence ratio",
    "VALUE REPORTED": 1.03
  },
  {
    "SEQ": "AAGTGCAAAC",
    "EXPERIMENTAL SYSTEM": "ATP",
    "VALUE KIND": "switch fluorescence ratio",
    "VALUE REPORTED": 1.53
  },
  {
    "SEQ": "GGTCTGTTAT",
    "EXPERIMENTAL SYSTEM": "ATP",
    "VALUE KIND": "switch fluorescence ratio",
    "VALUE REPORTED": 1.04
  },
  {
    "SEQ": "GGGTTAATAC",
    "EXPERIMENTAL SYSTEM": "ATP",
    "VALUE KIND": "switch fluorescence ratio",
    "VALUE REPORTED": 1.29
  },
  {
    "SEQ": "GATGTATTAT",
    "EXPERIMENTAL SYSTEM": "ATP",
    "VALUE KIND": "switch fluorescence ratio",
    "VALUE REPORTED": 1.01
  },
  {
    "SEQ": "CGCTTAGGCA",
    "EXPERIMENTAL SYSTEM": "ATP",
    "VALUE KIND": "switch fluorescence ratio",
    "VALUE REPORTED": 1.02
  },
  {
    "SEQ": "GAGTAAGGAC",
    "EXPERIMENTAL SYSTEM": "ATP",
    "VALUE KIND": "switch fluorescence ratio",
    "VALUE REPORTED": 1.09
  },
  {
    "SEQ": "AAGGGCTGGT",
    "EXPERIMENTAL SYSTEM": "ATP",
    "VALUE KIND": "switch fluorescence ratio",
    "VALUE REPORTED": 0.99
  },
  {
    "SEQ": "GCGATCGGTT",
    "EXPERIMENTAL SYSTEM": "ATP",
    "VALUE KIND": "switch fluorescence ratio",
    "VALUE REPORTED": 1.01
  },
  {
    "SEQ": "GCTGATGCGG",
    "EXPERIMENTAL SYSTEM": "ATP",
    "VALUE KIND": "switch fluorescence ratio",
    "VALUE REPORTED": 0.999
  },
  {
    "SEQ": "GGTTGGTCTT",
    "EXPERIMENTAL SYSTEM": "ATP",
    "VALUE KIND": "switch fluorescence ratio",
    "VALUE REPORTED": 0.974
  }
]

====

tested on: ATP; experiment: switch fluorescence ratio, 500 uM ATP over buffer (Cy3 cluster intensity, sum of 5 cycles each) (fold (ratio)); higher = stronger signal-on switching upon ATP binding; sequences stand for … in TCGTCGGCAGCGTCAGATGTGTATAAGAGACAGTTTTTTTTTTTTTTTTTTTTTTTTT…TC; conditions: aptamer strand: ATP DNA aptamer (quencher-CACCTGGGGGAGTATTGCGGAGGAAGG + anchor), 100 nM annealed; ATP concentration: 500 uM;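 note: ATP exposure 15 min at 22 °C before imaging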
VALUE KIND: switch fluorescence ratio

[
  {
    "SEQ": "TCGTCGAACG",
    "VALUE KIND": "switch fluorescence ratio",
    "VALUE REPORTED": 0.988
  },
  {
    "SEQ": "GGCCTGGACG",
    "VALUE KIND": "switch fluorescence ratio",
    "VALUE REPORTED": 1.05
  },
  {
    "SEQ": "GGCATTATAA",
    "VALUE KIND": "switch fluorescence ratio",
    "VALUE REPORTED": 0.99
  },
  {
    "SEQ": "TCCCGTATCC",
    "VALUE KIND": "switch fluorescence ratio",
    "VALUE REPORTED": 1.07
  },
  {
    "SEQ": "TCTGTTGAAT",
    "VALUE KIND": "switch fluorescence ratio",
    "VALUE REPORTED": 1.01
  },
  {
    "SEQ": "AGGGCCAGGT",
    "VALUE KIND": "switch fluorescence ratio",
    "VALUE REPORTED": 1.11
  },
  {
    "SEQ": "GAGTGGGTGG",
    "VALUE KIND": "switch fluorescence ratio",
    "VALUE REPORTED": 0.99
  },
  {
    "SEQ": "AAAGGGCGGA",
    "VALUE KIND": "switch fluorescence ratio",
    "VALUE REPORTED": 0.988
  },
  {
    "SEQ": "GGCTTGGCCC",
    "VALUE KIND": "switch fluorescence ratio",
    "VALUE REPORTED": 1.01
  },
  {
    "SEQ": "TACAGCTTCT",
    "VALUE KIND": "switch fluorescence ratio",
    "VALUE REPORTED": 1.01
  },
  {
    "SEQ": "GGGCAAGGAT",
    "VALUE KIND": "switch fluorescence ratio",
    "VALUE REPORTED": 1.01
  },
  {
    "SEQ": "GTCTTCATGG",
    "VALUE KIND": "switch fluorescence ratio",
    "VALUE REPORTED": 0.989
  },
  {
    "SEQ": "TGGGGCAGGT",
    "VALUE KIND": "switch fluorescence ratio",
    "VALUE REPORTED": 0.997
  },
  {
    "SEQ": "CGAAATGGCG",
    "VALUE KIND": "switch fluorescence ratio",
    "VALUE REPORTED": 1.05
  },
  {
    "SEQ": "ATGGACGCTA",
    "VALUE KIND": "switch fluorescence ratio",
    "VALUE REPORTED": 1.12
  },
  {
    "SEQ": "CCAAGGATAA",
    "VALUE KIND": "switch fluorescence ratio",
    "VALUE REPORTED": 1.05
  },
  {
    "SEQ": "AGAGGAGGTG",
    "VALUE KIND": "switch fluorescence ratio",
    "VALUE REPORTED": 1.02
  },
  {
    "SEQ": "AAGGTTGGGG",
    "VALUE KIND": "switch fluorescence ratio",
    "VALUE REPORTED": 0.994
  },
  {
    "SEQ": "CCTTGCTGTG",
    "VALUE KIND": "switch fluorescence ratio",
    "VALUE REPORTED": 1.06
  },
  {
    "SEQ": "GTGAGCATGT",
    "VALUE KIND": "switch fluorescence ratio",
    "VALUE REPORTED": 1.01
  }
]
